assay: Half life in Wistar rat liver at 15 mg/kg, po by HPLC analysis; type: ADME, organism-based
measured_metric: half-life (h)
Provide the reading as a plain figure in h.

Record summary for CCCCC1=NC2(CCCC2)C(=O)N1Cc1ccc2c(ccn2-c2ccccc2-c2nnn[nH]2)c1 : reported half-life = 1.8

---

test: Cmax in Wistar rat heart at 30 mg/kg, po by HPLC analysis; assay type: ADME, organism-based; set-up: dose 30 mg/kg, route oral
measured_metric: Cmax (ng/mL)
Provide the reading as a plain figure in ng/mL.

Record summary for CCCCC1=NC2(CCCC2)C(=O)N1Cc1ccc2c(ccn2-c2ccccc2-c2nnn[nH]2)c1 : reported Cmax = 401

src = ChEMBL document CHEMBL3872205
